Consider the following compounds; for each one, report its TGI.
# System: SNB-78 CNS
# procedure-summary: NCI tumour cell line growth inhibition, 48 h

Query :: Query (compound): O=NN(CCF)C(=O)NC1CC2CCC1C2 (stereo unspecified) ; field requested: TGI
Result :: > 100 µM

Query :: Query (compound): "Cc1c(C(=O)/C=C/C=C/c2ccccc2)[n+](=O)c2ccccc2n1[O-]" ; field requested: TGI
Result :: > 100 µM

Query :: Query (compound): "CN(C)CCNC(=O)c1cccc2cc3cc(O)ccc3nc12" ; field requested: TGI
Result :: 18.2 µM

Query :: Query (compound): COc1ccc(OC(C(=O)O)C(C)C)c2c1CCCC2=O (stereo unspecified) ; field requested: TGI
Result :: > 100 µM

Query :: Query (compound): COC(=O)C1C(=O)CC2CCCCC21 (stereo unspecified) ; field requested: TGI
Result :: > 100 µM

Query :: Query (compound): "CCc1cccc(C)c1N1C(=O)C(=O)C(c2nc3ccccc3o2)C(=O)C1=O" ; field requested: TGI
Result :: > 100 µM

----------
# Test system: KM12 colon
# procedure-summary: NCI tumour cell line growth inhibition, 48 h
measurement-name: GI50

Query :: Query (compound): "CN1CCN(CCOc2ccc(-c3cnc4c(-c5cccc(F)c5)cnn4c3)cc2)CC1" ; field requested: GI50
Result :: 1500 nM

Query :: Query (compound): "COc1ccc(NC(=O)/C=C(C)/C=C/C=C(C)/C=C/C2=C(C)CCCC2(C)C)cc1" ; field requested: GI50
Result :: 4400 nM

Query :: Query (compound): O=C1C2=C(C(=O)c3cnccc31)C1C=CC2CC1 (stereo not given) ; field requested: GI50
Result :: 2650 nM

Query :: Query (compound): "COc1cccc(CN(C)c2ccc(CO)c(Cl)c2)c1" ; field requested: GI50
Result :: 29800 nM

Query :: Query (compound): "CN(C)c1ccc(/C=C2\N=C(c3ccccc3)N(c3cc(C(F)(F)F)ccc3Cl)C2=O)cc1" ; field requested: GI50
Result :: > 100000 nM

Query :: Query (compound): "N#C/C(=C\c1ccc([N+](=O)[O-])s1)c1nc2cc(Cl)ccc2s1" ; field requested: GI50
Result :: 1440 nM

Query :: Query (compound): C=C(C)C1CC/C(C)=C/CC[C@]2(C)O[C@@H]2CCC2=CC1OC2=O (stereo not given in full) ; field requested: GI50
Result :: 21600 nM

Query :: Query (compound): "O=C(Nc1ccc(-n2ccc3c(NC(=O)c4ccccc4)ncnc32)cc1)c1cccc(C(F)(F)F)c1" ; field requested: GI50
Result :: 626 nM

Query :: Query (compound): "c1cc(-c2nnc(SSc3ncnc4nc[nH]c34)o2)ccn1" ; field requested: GI50
Result :: 2610 nM

Query :: Query (compound): "C=C1C(=O)O[C@H]2[C@H]1CC/C(COC(=O)NCc1ccc(OC)cc1)=C\CC[C@@]1(C)O[C@@H]21" ; field requested: GI50
Result :: 4750 nM

----------
Consider the following compounds; for each one, report its TGI.
# Test system: IGROV1 ovarian
# procedure-summary: NCI tumour cell line growth inhibition, 48 h

Query :: Query (compound): "CC1(c2cc3c(cc2Br)OCO3)SCCCS1" ; field requested: TGI
Result :: > 100 µM

Query :: Query (compound): "O=S(=O)(O)c1cccc2cccc(N=Nc3c(O)ccc4ccccc34)c12" ; field requested: TGI
Result :: > 100 µM

Query :: Query (compound): COC(=O)CCC12CCC(=O)C1[C@@H](C(=O)OC)C[C@H]2C(=O)OC (some centres not stated) ; field requested: TGI
Result :: > 100 µM

Query :: Query (compound): "CO[C@H]1O[C@@H]2CO[C@@H](c3ccccc3)O[C@H]2[C@@H]2C/C=C\CCC[C@@]12O" ; field requested: TGI
Result :: 96.2 µM

Query :: Query (compound): "O=[N+]([O-])c1ccc2oc(=Nc3ccccc3)c(Nc3ccccc3)nc2c1" ; field requested: TGI
Result :: > 100 µM

Query :: Query (compound): COc1ccc(C(Cc2ccccc2)C2NC(=S)NC2=O)cc1 (configuration not stated) ; field requested: TGI
Result :: > 25 µM

Query :: Query (compound): "Cc1cc(C)c2c(n1)sc1c(N)ncnc12" ; field requested: TGI
Result :: > 25 µM

Query :: Query (compound): "Cc1c(C(=O)/C=C/C=C/c2ccccc2)[n+](=O)c2ccccc2n1[O-]" ; field requested: TGI
Result :: 65.5 µM

Query :: Query (compound): CCOC(=O)CCC1(C(=O)OCC)CCCC1=O (configuration not stated) ; field requested: TGI
Result :: > 100 µM

Query :: Query (compound): "Cc1ccc(-c2nnc(CCCCCCCCc3nnc(-c4ccc(C)cc4O)n3N)n2N)c(O)c1" ; field requested: TGI
Result :: > 100 µM

Query :: Query (compound): "Cc1ccc2nc(-c3ccc(OCC(=O)N=Nc4c(O)[nH]c5ccccc45)cc3)[nH]c2c1" ; field requested: TGI
Result :: 16.1 µM

Query :: Query (compound): CC(C)(C)C(=O)OCC1OC(N=[N+]=[N-])C(OC(=O)C(C)(C)C)C(OC(=O)C(C)(C)C)C1OC(=O)C(C)(C)C (configuration not stated) ; field requested: TGI
Result :: > 100 µM

Query :: Query (compound): "COC(=O)C12CC(NC(=O)c3csc([C@@H](C[C@H](C(C)C)N(C)C(=O)[C@@H](NC(=O)[C@H]4CCCCN4C)C4CC4)OC(C)=O)n3)(C1)C2" ; field requested: TGI
Result :: > 16.7 µM

Query :: Query (compound): "CCCn1cnc2c(SCC(=O)O)nc(N)nc21" ; field requested: TGI
Result :: > 100 µM

Query :: Query (compound): "Cc1ccc(Oc2ccccc2N)cc1" ; field requested: TGI
Result :: > 100 µM

Query :: Query (compound): "C1=C/COCc2cc(ccc2OCCN2CCCC2)Nc2nccc(n2)-c2ccc(o2)COC/1" ; field requested: TGI
Result :: 6.57 µM

Query :: Query (compound): "CC(=O)NC1=C(NCCCl)C(=O)c2ccccc2C1=O" ; field requested: TGI
Result :: > 100 µM

Query :: Query (compound): OCC(CCc1ccccc1I)C1=CCC2(CC1)OCCO2 (configuration not stated) ; field requested: TGI
Result :: 39.7 µM

Query :: Query (compound): "CN(C)c1nc(=NCc2ccco2)ss1" ; field requested: TGI
Result :: > 100 µM

Query :: Query (compound): "CN(C)/C=N\c1ccnc(=O)[nH]1" ; field requested: TGI
Result :: > 100 µM

Query :: Query (compound): O=c1nc(-c2ccccc2)cc(CC(O)c2ccc(Cl)c(Cl)c2)[nH]1 (configuration not stated) ; field requested: TGI
Result :: > 100 µM

Query :: Query (compound): "O=C(Nc1ccc(F)cc1F)c1cc(Cl)ccc1O" ; field requested: TGI
Result :: > 100 µM
